- Tested on: U-937
- METHOD DESCRIPTION: Antiproliferative activity against human U937 cells assessed as reduction in cell viability after 24 hrs by CCK8 assay
- Assay type: functional, cell-based
- CONDITION PARAMETERS: U-937, 24 h
Each entry below lists one item and its recorded IC50 value.
Only the number, expressed in µM, is required.

Example entries and their recorded answers appear below.
> print(dat)
                               smiles.entry  unit.text  endpoint.result
1  COc1ccc(C(=O)Nc2ccc(C)c(-n3cc(-c4cnc5ccnn5c4)cn3)c2)cc1         µM             16.3
2  Cc1ccc(NC(=O)c2ccc(CN3CCCN(C)CC3)cc2)cc1-n1cc(-c2cnc3ccnn3c2)cn1         µM             6.83
3  Cc1ccc(NC(=O)c2ccc(CN3CCOCC3)cc2)cc1-n1cc(-c2cnc3cccnn23)cn1         µM             12.4

Query string: Retrieve IC50 on U-937; query Cc1ccc(NC(=O)c2cccc(C(F)(F)F)c2)cc1-n1cc(-c2cnc3cccnn23)cn1
Result string: 13.7

Query string: Retrieve IC50 on U-937; query Cc1ccc(NC(=O)c2ccc(CN3CCN(C)CC3)cc2)cc1Nc1nccc(-c2cccnc2)n1
Result string: 12.4

Query string: Retrieve IC50 on U-937; query Cc1ccc(NC(=O)c2ccc(CN3CCN(C)CC3)cc2)cc1-n1cc(-c2cnc3cccnn23)cn1
Result string: 10.8

Query string: Retrieve IC50 on U-937; query Cc1ccc(NC(=O)c2ccc(C(F)(F)F)cc2)cc1-n1cc(-c2cnc3ccnn3c2)cn1
Result string: 13.1
